Provenance of the data: PubChem BioAssay

Listed here: items and their measured inhibition.
test: RAM pathway blockade in budding yeast – dse1pr::URA3 reporter, 5-FOA selection, pilot screen (AID 869);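 note: 0% = DMSO wells with no growth and 100% = 10 µM 1-NA-PP1 with full growth; RAM network block rescues cells from 5-FOA so hits raise OD615 growth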; details: S. cerevisiae dse1pr::URA3 5-FOA growth, OD615, 2 d; at 10 µM; active compounds read high; strain carries analog-sensitive mutant Cbk1 kinase
Write down the numeric answer in % and omit the unit.

compound: O=C1CCC(=O)N1c1ccc(CSc2nnnn2C2CCCCC2)cc1
unit_spec: %
inhibition: -0.145
--
compound: COc1ccccc1NC(=O)C1(C)Cc2ccccc2C(=O)O1 (centres undefined)
unit_spec: %
inhibition: 1.77

[in] Please look up its inhibition: Cc1onc(-c2c(Cl)cccc2Cl)c1C(=O)NCC1CCCO1 (centres undefined)
[out] -1.21

[in] What measured inhibition goes with O=C1CC(c2ccco2)CC(O)=C1C=NCCN1CCNCC1 (centres undefined) ?
[out] 0.405

[in] // lookup inhibition for CCCOc1ccc(C2C(C(=O)OC)=CN(CCOC)C=C2C(=O)OC)cc1
[out] 2.16

[in] Look at this compound and give its reported inhibition. COc1ccc(C(NC(=O)c2ccco2)c2ccc(OC)c(OC)c2)cc1 (centres undefined)
[out] 1.3

[in] Item under review: CCCSc1nc2c(cnn2-c2ccc(C)c(C)c2)c(=O)[nH]1 . Reported inhibition?
[out] 2.58

[in] Please give the measured inhibition for this compound: CC(C)N(C(=O)CSc1nc2c([nH]1)c(=O)n(C)c(=O)n2C)c1ccccc1
[out] 1.22

[in] inhibition lookup needed for CCOc1ccc(C2CC(c3cccc(OC)c3)Nc3nc(N)nn32)cc1 (centres undefined) , thanks.
[out] 1.65

* * *

Reported growth inhibition values for a set of compounds
test: S. cerevisiae growth inhibition in permissive medium (OD615), pilot counter-assay for S. cerevisiae lifespan shortening project, permissive growth control (AID 705); details: OD615, 24 h, at 10 µM, active compounds read high
Calls of active or inactive are those of the source.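 Rule for the calls: active = growth inhibition above 25% in both replicates, a cutoff set 3 SD above the mean; inconclusive = above 25% in only one replicate; inactive = the rest.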

compound: CCSc1nc2c(c(=O)[nH]1)C(c1cccnc1)C(C(=O)OC(C)C)=C(C)N2 (stereo unspecified)
assay_readout: growth inhibition
measured_value: -18.5% (inactive)

compound: COc1cccc(C2=N/C(=C\N(C)C)C(=O)O2)c1
assay_readout: growth inhibition
measured_value: 1.7% (inactive)

compound: Cc1cc(C)n2c(SCCN3C(=O)c4ccccc4C3=O)nnc2n1
assay_readout: growth inhibition
measured_value: -7.84% (inactive)

[in] Param item = Clc1ccc2nc3ccccn3c2c1 ; retrieve measured growth inhibition.
[out] -6.63% (inactive)

[in] Look up growth inhibition: O=C(O)CCCC(=O)Nc1c(F)c(F)c(F)c(F)c1F
[out] -5.5% (inactive)

[in] Recorded growth inhibition for O=C(NC1CCCC1)C1c2ccccc2C(=O)N1CCCN1CCOCC1 (stereo unspecified) , please?
[out] -2.13% (inactive)

[in] Data request, read-out growth inhibition, for O=C(C(Cc1ccccc1)n1cccc1)N1CCCCCC1 (stereo unspecified)
[out] -11.2% (inactive)

[in] Which growth inhibition value is on record for O=C1C(=O)N(CCCn2ccnc2)C(c2cccnc2)/C1=C(/O)c1ccc(Cl)cc1 (stereo unspecified) ?
[out] -11.6% (inactive)

[in] // growth inhibition lookup, key: CCC(=O)c1cc(F)c(N2CCN(C(=O)c3ccco3)CC2)cc1C
[out] -10.3% (inactive)

* * *

assay: H69AR cell proliferation blockers – human, duplicate replicates, primary screen (AID 580); details: H69AR lung tumor cells viability, ATP luminescence, 72 h; at 10 µM;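 note: 100% = mean luminescence of untreated wells and 0% = no signal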
The source made the active and inactive calls.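 Rule for the calls: active = viability at or under a set limit in both replicates, limit being median viability minus 3 SD (cut at about 48% in these data, passing the limit was not always enough); inconclusive = at or under the limit in just one replicate; inactive = at or above the limit in both replicates.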
Output constraint: value belongs to 1 (active), -1 (inactive)

See these solved cases before continuing.
compound: Cc1ccc(-c2noc(COc3ccccc3C)n2)cc1
qualitative_label: -1
--
compound: Cc1cccc(-n2ncc3c(NCCCO)ncnc32)c1
qualitative_label: -1
--
compound: Cc1c(C#N)c2ccccc2n1CC(=O)N1CCc2ccccc2C1
qualitative_label: -1
--
compound: COc1ccc(NS(=O)(=O)c2ccc(NC(C)=O)cc2)cc1OC
qualitative_label: -1

Please look at the following compound next.
[in] Hey, what did the test say about CC(C)=CC(=O)OCC(=O)NC(=O)NC(C)(C)C ?
[out] -1
